Entries and their LogP
# Applied conditions: method [a]: LC-MS at pH 2.7, 0.1% formic acid in water / acetonitrile, linear gradient 10% to 95% acetonitrile

1) CCCC(=O)C(C#N)=C(NC(C)CCC)c1cn(C)nc1C(F)F (racemic) = 3.33^[a]
2) CCCC(=O)C(C#N)=C(NC(C)COC)c1cc(C)nn1C(F)F (centres unmarked) = 3.13^[a]
3) CCCC(=O)C(C#N)=C(NC(C)CC)c1cn(C)nc1C(F)F (racemic) = 2.98^[a]

Fill in the blank: the reported LogP of CC(NC(=C(C#N)C(=O)c1ccco1)c1cccnc1Cl)C1CC1 (centres unmarked) is ____. 2.80^[a]

What do you get for CC(NC(=C(C#N)C(=O)C1CCC1)c1cccnc1Cl)C1CC1 (centres unmarked) ? 3.44^[a]

* * *

# Applied conditions: method [a]: LC-MS at pH 2.7, 0.1% formic acid in water / acetonitrile, linear gradient 10% to 95% acetonitrile
Property measured: LogP

Fill in the blank: the reported LogP of CCCC(=O)C(C#N)=C(NC(C)COC)c1cccnc1C (centres unmarked) is ____. 2.14^[a]

* * *

Entries and their LogP
# Applied conditions: method [a]: LC-MS at pH 2.7, 0.1% formic acid in water / acetonitrile, linear gradient 10% to 95% acetonitrile

Sample records with LogP:
1. CCC(=O)C(C#N)=C(NC(C)C1CC1)c1cccnc1Cl (stereo not drawn) = 2.88^[a]
2. CNCC(=O)C(C#N)=C(NC(C)C(C)C)c1cn(C)nc1C(F)F (stereo not drawn) = 1.60^[a]
3. CCCC(=O)C(C#N)=C(NC(C)CCC)c1cccnc1Cl (racemic) = 3.65^[a]
4. CCCC(=O)C(C#N)=C(NC(C)C(=O)OCC)c1cn(C)nc1C(F)F (racemic) = 2.78^[a]

Fill in the blank: the reported LogP of CCCC(=O)C(C#N)=C(NC(C)CCc1ccccc1)c1cccnc1Cl (racemic) is ____. 4.16^[a]

What do you get for CC(NC(=C(C#N)C(=O)C1CCCC1)c1cccnc1Cl)C1CC1 (stereo not drawn) ? 3.83^[a]

* * *

# Applied conditions: method [a]: LC-MS at pH 2.7, 0.1% formic acid in water / acetonitrile, linear gradient 10% to 95% acetonitrile
Entries and their LogP

Sample records with LogP:
1. CSCC(=O)C(C#N)=C(NC(C)C(C)C)c1cccnc1Cl (stereo not drawn) = 3.13^[a]
2. CC(C)C(C)NC(=C(C#N)C(=O)C1CCC1)c1cccnc1Cl (stereo not drawn) = 3.80^[a]

Now take the following compound into account.
Fill in the blank: the reported LogP of CCCC(=O)C(C#N)=C(NC(C)c1nc(C)c(C)s1)c1cccnc1Cl (racemic) is ____. 3.02^[a]

* * *

# Tested on: Phytophthora infestans
# Format: in vivo
# Applied conditions: tomato plants, preventive spray, 500 ppm of active ingredient, evaluated 7 days after inoculation; 0% = untreated control, 100% = no disease
Property measured: efficacy (%)
Quick reminder: number only, in %, skip the unit.

1) CCCC(=O)C(C#N)=C(NC(C)C(C)C)c1cn(C)nc1C(F)F (stereo not shown) [Compound 51] = 95
2) CCCC(=O)C(C#N)=C(NC(C)C(=O)OCC)c1cn(C)nc1C(F)F (racemic) [Compound 131] = 80
3) CCCC(=O)C(C#N)=C(NC(C)c1ccsn1)c1cn(C)nc1C(F)F (stereo not shown) [Compound 88] = 97
4) CC(NC(=C(C#N)C(=O)CC1CC1)c1cccnc1Cl)C1(Cl)CC1 (racemic) [Compound 27] = 93
5) CC(NC(=C(C#N)C(=O)C1CCC1)c1cn(C)nc1C(F)F)C1CC1 (stereo not shown) [Compound 70] = 80

Query the reported efficacy for Phytophthora infestans; item: CCC(=O)C(C#N)=C(NC(C)C(C)C)c1cccnc1Cl (stereo not shown) [Compound 5] 100

What do you get for CC(C)C(C)NC(=C(C#N)C(=O)C1CCC1)c1cccnc1Cl (stereo not shown) [Compound 44] ? 85

* * *

Entries and their LogP
# Applied conditions: method [a]: LC-MS at pH 2.7, 0.1% formic acid in water / acetonitrile, linear gradient 10% to 95% acetonitrile

Sample records with LogP:
1. CCC(F)(F)C(=O)C(C#N)=C(NC(C)C(C)C)c1cccnc1Cl (stereo not shown) [Compound 37] = 3.55^[a]
2. CCCC(=O)C(C#N)=C(NC(C)c1c(F)cccc1F)c1cn(C)nc1C(F)F (stereo not shown) [Compound 110] = 3.46^[a]
3. CCCC(=O)C(C#N)=C(NC(C)c1ccco1)c1cn(C)nc1C(F)F (racemic) [Compound 132] = 3.04^[a]
4. CC(C)C(C)NC(=C(C#N)C(=O)C1CCCCC1)c1cccnc1Cl (stereo not shown) [Compound 53] = 4.50^[a]
5. CCCC(=O)C(C#N)=C(NC1CC1CC)c1cccnc1Cl (stereo not shown) [Compound 31] = 3.51^[a]

Fill in the blank: the reported LogP of CCCC(=O)C(C#N)=C(NC(C)C1(C)CC1)c1cccnc1Cl (racemic) [Compound 103] is ____. 3.57^[a]

What do you get for CC(C)C(C)NC(=C(C#N)C(=O)CN1CCCC1)c1cccnc1Cl (stereo not shown) [Compound 35] ? 1.52^[a]

What do you get for CC(C)C(C)NC(=C(C#N)C(=O)C1CCCCO1)c1cccnc1Cl (stereo not shown) [Compound 6] ? 3.00^[a]

What do you get for CCCC(=O)C(C#N)=C(NC(C)c1nccs1)c1cc(C)nn1C(F)F (stereo not shown) [Compound 94] ? 3.11^[a]

What do you get for CCCC(=O)C(C#N)=C(NC1(CC2CC2)CC1)c1cccnc1Cl [Compound 101] ? 3.79^[a]

What do you get for COCCC(=O)C(C#N)=C(NC(C)C(C)C)c1cn(C)nc1C(F)F (stereo not shown) [Compound 62] ? 2.64^[a]

What do you get for CCCC(=O)C(C#N)=C(NC1CCC1)c1cn(C)nc1C(F)F [Compound 120] ? 2.88^[a]

What do you get for CCCC(=O)C(C#N)=C(NC(C)CC(C)C)c1cn(C)nc1C(F)F (racemic) [Compound 127] ? 3.63^[a]

What do you get for CCCC(=O)C(C#N)=C(NC(C)C1=NOCC1)c1cccnc1Cl (racemic) [Compound 100] ? 2.47^[a]

What do you get for CC(NC(=C(C#N)C(=O)Cc1ccccc1)c1cccnc1Cl)C1CC1 (stereo not shown) [Compound 8] ? 3.23^[a]

* * *

Entries and their LogP
# Applied conditions: method [a]: LC-MS at pH 2.7, 0.1% formic acid in water / acetonitrile, linear gradient 10% to 95% acetonitrile

Sample records with LogP:
1) Cc1cc(C(NC(C)c2nccs2)=C(C#N)C(=O)CC2CC2)n(C(F)F)n1 (stereo not shown) = 3.09^[a]
2) CCC(C)C(=O)C(C#N)=C(NC(C)C(C)C)c1cccnc1Cl (stereo not shown) = 3.9^[a]
3) CC(C)C(C)NC(=C(C#N)C(=O)C1(F)CC1)c1cccnc1Cl (stereo not shown) = 3.29^[a]
4) CCCCC(=O)C(C#N)=C(NC1CC1CC)c1cccnc1Cl (stereo not shown) = 3.94^[a]
5) CCC(=O)C(C#N)=C(NC(C)C1CC1)c1cn(C)nc1C(F)F (stereo not shown) = 2.73^[a]
6) COCC(=O)C(C#N)=C(NC(C)C1CC1)c1cn(C)nc1C(F)F (stereo not shown) = 2.15^[a]
7) CCNCC(=O)C(C#N)=C(NC(C)C(C)C)c1cn(C)nc1C(F)F (stereo not shown) = 1.63^[a]
8) CCCC(=O)C(C#N)=C(NC(C)CC1CC1)c1cn(C)nc1C(F)F (racemic) = 3.35^[a]

Now take the following compound into account.
Fill in the blank: the reported LogP of CCCC(=O)C(C#N)=C(NC(C)C(=O)NC)c1cn(C)nc1C(F)F (stereo not shown) is ____. 1.79^[a]

* * *

# Applied conditions: method [a]: LC-MS at pH 2.7, 0.1% formic acid in water / acetonitrile, linear gradient 10% to 95% acetonitrile
Property measured: LogP

Sample records with LogP:
1. CC(C)C(C)NC(=C(C#N)C(=O)C1CCCC1)c1cn(C)nc1C(F)F (stereo not shown) [Compound 78] = 3.81^[a]
2. CNCC(=O)C(C#N)=C(NC(C)C(C)C)c1cccnc1Cl (stereo not shown) [Compound 15] = 1.50^[a]
3. COCC(=O)C(C#N)=C(NC(C)C1(Cl)CC1)c1cccnc1Cl (stereo not shown) [Compound 36] = 2.44^[a]
4. CC(C)C(C)NC(=C(C#N)C(=O)CCl)c1cn(C)nc1C(F)F (stereo not shown) [Compound 32] = 2.86^[a]
5. COCC(=O)C(C#N)=C(NC(C)C1CC1)c1cccnc1Cl (stereo not shown) [Compound 49] = 2.23^[a]
6. CC(C)C(C)NC(=C(C#N)C(=O)CN1CCCC1)c1cn(C)nc1C(F)F (stereo not shown) [Compound 66] = 1.31^[a]
7. CC(C)C(C)NC(=C(C#N)C(=O)CNC1CC1)c1cccnc1Cl (stereo not shown) [Compound 39] = 1.74^[a]
8. CC(C)C(C)NC(=C(C#N)C(=O)C1(Cl)CC1)c1cccnc1Cl (stereo not shown) [Compound 3] = 3.44^[a]

Fill in the blank: the reported LogP of CCCC(=O)C(C#N)=C(NC1(CC2CC2)CC1)c1cn(C)nc1C(F)F [Compound 119] is ____. 3.44^[a]

What do you get for CC(C)C(C)NC(=C(C#N)C(=O)C1CCCC1)c1cccnc1Cl (stereo not shown) [Compound 7] ? 4.23^[a]

Data provenance: patent US9474275B2
